Experiment: self-splicing fitness, log relative to wild type (ln ratio); higher = more splicing; Tetrahymena group I intron in knt gene, E. coli kanamycin selection, DiMSum; sequences stand for … in CUCUCU…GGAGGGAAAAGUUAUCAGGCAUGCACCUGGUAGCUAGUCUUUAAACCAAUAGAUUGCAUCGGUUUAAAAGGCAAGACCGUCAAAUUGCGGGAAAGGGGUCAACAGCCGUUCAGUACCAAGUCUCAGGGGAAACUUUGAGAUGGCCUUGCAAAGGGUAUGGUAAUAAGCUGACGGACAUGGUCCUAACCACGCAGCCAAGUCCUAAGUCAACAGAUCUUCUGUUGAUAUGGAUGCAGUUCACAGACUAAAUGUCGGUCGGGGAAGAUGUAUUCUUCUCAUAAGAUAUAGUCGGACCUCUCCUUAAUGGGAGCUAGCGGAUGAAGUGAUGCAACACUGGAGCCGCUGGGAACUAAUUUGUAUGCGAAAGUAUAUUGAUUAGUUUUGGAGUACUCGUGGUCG;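 also: selection with 25 µg/mL kanamycin versus none on LB agar overnight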
Settings: 37 °C
Listed next: entries and their corresponding self-splicing fitness (ln).
Kindly provide the number alone.

// solved cases for self-splicing fitness (ln) follow
1. AGUAAGCAAUAUUACGUGCA; -0.712
2. UGCCAGCAAUAUUACGAGCA; -0.682

# next sequence below
Exercise: Value lookup for self-splicing fitness (ln); key = GUAUAGCAAUAUUACGGAUG
Solution: -1.99
